Data provenance: patent US11066447B2

System: A. fumigatus MMX 6781 ATCC MYA-4609
Assay: MIC/MEC assay (CLSI microdilution)
Format: cell-based
Conditions: RPMI plus 0.002% Tween-80; 48 hr
Numbered stars: 1 amine (or outer) side, 2 acyl side, 3 side chain; on linkers, the order of the positions; unused ones are H or OH. Square brackets hold non-standard residues; d marks the D form. Peptide text beside a SMILES is read from it. X1 = CC(C)N1CCN(c2ccc(-c3cccc(C[C@@H](C(=O)[*:2])N(C)[*:1])c3)cc2)CC1; X26 = CC1CCN(c2cnc(-c3cccc(C[C@@H](C(=O)[*:2])N(C)[*:1])c3)cn2)CC1; X7 = CC(C)N1CCN(c2ccc(-c3cccc(C[C@H](N[*:1])C(=O)[*:2])c3)cc2)CC1; X10 = CN([C@@H](Cc1cccc(-c2ccc(N3CCNCC3)nc2)c1)C(=O)[*:2])[*:1]; Hmp(2R,3S) = CC[C@H](C)[C@@H](O)C(=O)O; NMeVal(β-OH) = CN[C@H](C(=O)O)C(C)(C)O; NMeV = CN[C@H](C(=O)O)C(C)C
Parameter MIC: see the listing below.
Please respond with the number in µg/mL and leave the unit unwritten.

Please review the entries below; each comes with its answer.
compound | studyTarget | readoutName | valueMeasured
CC[C@H](C)[C@@H]1NC(=O)[C@@H]2CCCN2C(=O)[C@H](Cc2cccc(-c3ccc(N4CCNCC4)nc3)c2)N(C)C(=O)[C@H](Cc2ccccc2)NC(=O)[C@H](C(C)C)N(C)C(=O)[C@@H]([C@@H](C)CC)OC(=O)[C@H](C(C)(C)O)N(C)C(=O)[C@H](CC(C)C)NC(=O)[C@H](C(C)C)N(C)C1=O [Compound 30] (cyclo(F[X10]PI[NMeV]L[NMeVal(β-OH)][Hmp(2R,3S)][NMeV])) | A. fumigatus MMX 6781 ATCC MYA-4609 | MIC | 2
CC[C@H](C)[C@@H]1NC(=O)[C@@H]2CCCN2C(=O)[C@H](Cc2cccc(-c3ccc(N4CCN(C(C)C)CC4)cc3)c2)N(C)C(=O)[C@H](Cc2cccc(-c3ccc(N4CCN(C(C)C)CC4)cc3)c2)NC(=O)[C@H](C(C)C)N(C)C(=O)[C@@H]([C@@H](C)CC)OC(=O)[C@H](C(C)(C)O)N(C)C(=O)[C@H](CC(C)C)NC(=O)[C@H](C(C)C)N(C)C1=O [Compound 31] (cyclo(I[NMeV]L[NMeVal(β-OH)][Hmp(2R,3S)][NMeV][X7][X1]P)) | A. fumigatus MMX 6781 ATCC MYA-4609 | MIC | 2

Now for the compound whose MIC we want.
For record CC[C@H](C)[C@@H]1NC(=O)[C@@H]2CCCN2C(=O)[C@H](Cc2cccc(-c3cnc(N4CCC(C)CC4)cn3)c2)N(C)C(=O)[C@H](Cc2ccccc2)NC(=O)[C@H](C(C)C)N(C)C(=O)[C@@H]([C@@H](C)CC)OC(=O)[C@H](C(C)(C)O)N(C)C(=O)[C@H](CC(C)C)NC(=O)[C@H](C(C)C)N(C)C1=O [Compound 11] (cyclo(F[X26]PI[NMeV]L[NMeVal(β-OH)][Hmp(2R,3S)][NMeV])) the listed MIC is 64
